Measured Percent Effect, listed per entry for reference.
# Test system: Mycobacterium tuberculosis
# experiment_summary: Cornell M. t heat shock assay; note: in the data most compounds retested in dose-response had high values
# Assay type: functional, organism-based
# Set-up: dose or concentration left out as unconfirmed
Screen size: about 69,000 compounds; about 950 (1.4%) showed an effect of 50% or more. This excerpt belongs to a sample that is enriched for strong results.
API: value field is a number in %; no unit string.

Guide cases for Percent Effect, answers given:
* Cn1ccc(C(=O)N2CCC3(CCN3c3ncccn3)C2)n1.O=C(O)C(F)(F)F (centres undefined) | 24.82
* O=C(Cc1ccsc1)N1C[C@@H]2CN(Cc3ccoc3)CCO[C@@H]2C1.O=C(O)C(F)(F)F | -1.836

Give Mycobacterium tuberculosis Percent Effect for CN(C)CC1CSCCCN1C(=O)c1ccsc1 (centres undefined)
-29.65

Give Mycobacterium tuberculosis Percent Effect for `Cc1c(CN2CC[C@@H](N3CCC(O)CC3)[C@H](O)C2)[nH]c2ccc(Cl)cc12`
15.96

Give Mycobacterium tuberculosis Percent Effect for `Cc1cnc(N2CC[C@H]3[C@@H]2CCC(=O)N3c2ccccc2)nc1.O=C(O)C(F)(F)F`
36.02
